# Tested on: A498 renal
# assay_explanation: NCI tumour cell line growth inhibition, 48 h
readout: GI50

Worked cases, answers included:
compound	tested_on	GI50
O=C(c1ccccc1)c1ccccc1C(=O)c1ccccc1	A498 renal	4340 nM
COc1ccc(S(=O)(=O)n2c3ccccc3n3ncc(-c4nnc(C)o4)c23)cc1	A498 renal	298 nM
Cc1ccc(S(=O)(=O)c2ccsc2N)cc1	A498 renal	40700 nM
NC(=S)N/N=C\c1nccc2c(C(F)(F)C(F)(F)C(F)(F)F)cccc12	A498 renal	464 nM
CCCNc1cccc(-n2ncc3c(N/N=C/c4ccncc4)ncnc32)c1	A498 renal	1120 nM
CCC1OC(/C(C)=C/C(C)/C=C/C2C(C)C2/C=C/C2OC(CC(=O)O)CC(O)C2O)CC=C1C (stereo not given)	A498 renal	> 50000 nM
Cn1c(O)c(N=NC(N)=S)c2ccccc21	A498 renal	97700 nM
N#CC1CCc2c(c(-c3cn[nH]c3C(F)(F)F)nc3c(F)cc4[nH]ncc4c23)C1 (stereo not given)	A498 renal	2090 nM

*Q* May I ask what GI50 has been recorded for Brc1ccc2c(c1)c(-c1nc(-c3c[nH]c4ncccc34)cs1)cn2CCCN1CCCCC1 ?
*A* 2320 nM

*Q* May I ask what GI50 has been recorded for CC1(C)N=C(N)N=C(N)N1c1ccc(OCCCCNC(=O)c2ccc(S(=O)(=O)F)cc2)c(Cl)c1 ?
*A* > 100000 nM

====

// reported TGI per item
# Tested on: HOP-62 NSCLC
# assay_explanation: NCI tumour cell line growth inhibition, 48 h

Worked cases, answers included:
compound	tested_on	result
C/C(=C\CNc1nc(Cl)nc2nc[nH]c12)CO	HOP-62 NSCLC	> 100 µM
C/C=C/C(=O)[O-].N.N.N.N.N.[Co+3].[O-][Cl+3]([O-])([O-])[O-]	HOP-62 NSCLC	> 100 µM
CC1(C)Oc2ccc3c(=O)c4ccccc4oc3c2C1C(=O)O (configuration not stated)	HOP-62 NSCLC	> 100 µM
COc1cc2c(cc1O)CC[C@@H]1C2CC[C@@]2(C)C1CC[C@@H]2O (some centres not stated)	HOP-62 NSCLC	45.8 µM

*Q* May I ask what TGI has been recorded for Cc1ccc([N+](=O)[O-])cc1NC(=O)C(=O)C1CCC2=C(Sc3ccccc3N2)C1=O (configuration not stated) ?
*A* > 100 µM

*Q* May I ask what TGI has been recorded for CCCNc1cccc(-n2ncc3c(N/N=C/c4ccncc4)ncnc32)c1 ?
*A* > 25 µM

*Q* May I ask what TGI has been recorded for NC1CCCCC1N.O=S(=O)([O-])CCCN1CCN(CCO)CC1.O=S(=O)([O-])CCCN1CCN(CCO)CC1.[Pt+4] ?
*A* > 100 µM

====

# Tested on: HOP-18 NSCLC
# assay_explanation: NCI tumour cell line growth inhibition, 48 h
// reported TGI per item

Worked cases, answers included:
compound	TGI
CC(=O)Nc1ccc(/C=C(\NC(=O)c2ccccc2)C(=O)NNS(=O)(=O)c2ccc(C)cc2)cc1	> 100 µM
NC1CCCCC1N.O=S(=O)([O-])CCCN1CCN(CCO)CC1.O=S(=O)([O-])CCCN1CCN(CCO)CC1.[Pt+4]	> 100 µM
COc1cccc2c1[C@]1(O)C(O)CCCC21 (stereo not given in full)	> 100 µM
CC(=O)O[C@H]1C(=O)[C@@]2(C)C(C(OC(=O)c3ccccc3)[C@]3(O)CC(OC(=O)C(O)C(NC(=O)c4ccccc4)c4ccc(C)cc4)C(C)=C1C3(C)C)[C@]1(OC(C)=O)CO[C@@H]1C[C@@H]2O (stereo not given in full)	23.6 µM
CCCCN(CCCC)C(=O)C(=O)CC(=O)/C=C/c1ccccc1	> 100 µM

*Q* Query for HOP-18 NSCLC: what TGI does the record show for Nc1ccc(-c2nc3ccccc3s2)cc1 ?
*A* > 100 µM

*Q* Query for HOP-18 NSCLC: what TGI does the record show for O=C1OC(c2ccccc2)=N/C1=C/N1CCCC1C(=O)O (stereo not given) ?
*A* > 100 µM

*Q* Query for HOP-18 NSCLC: what TGI does the record show for CNC(C)Cc1ccc(O)cc1 (stereo not given) ?
*A* > 100 µM

*Q* Query for HOP-18 NSCLC: what TGI does the record show for COc1cc(C(=O)C/C(CCC(=O)Nc2ccc(Cl)cc2Cl)=N/Nc2nnc(C)n2N)ccc1O ?
*A* > 100 µM

*Q* Query for HOP-18 NSCLC: what TGI does the record show for C=C1CC(OC)(C(O)C(=O)N[C@H]2OCO[C@H]3C2O[C@H](C[C@H](O)COC)C(C)(C)C3OC)O[C@H](C)[C@@H]1C (stereo not given in full) ?
*A* > 0.00772 µM
